- experiment-summary: yeast display, Sf9 membrane polyspecificity reagent, FACS + sequencing; frameworks hold sequencing errors
reported-property: polyreactivity (PSR sort gate)

QVQLEESGGGLVQAGGSLRLSCAASGFTIRLYARGWYRQAPGKVRELVAAITSGGSTYADSVKGRFTISRDNAKNTVYLQMNSLKPEDTAVNYCAAVSRYWAKYEYWGQGTQVTVSS high polyreactivity
QVQLVESGGGLVQAGGSLRLSCAASGSTVRRYAMGWYRQAPGKERELVATISSGGRTNYADSVKGRFTISRDNAKNTVYLEMNSLKPEDTGVYYCAARPYFYERSAGYYWGQGTQVTVSS high polyreactivity

====

- experiment-summary: yeast display, Sf9 membrane polyspecificity reagent, FACS + sequencing; frameworks hold sequencing errors
reported-property: polyreactivity (PSR sort gate)

QVQLVESGGGLVQAGGSLRISCAASGRTFYQYDMGWYRQAPGKERELVAAIDWSGGSTYYADSVKGRFTISRDNAKNTVYLQMNSLKPEDTAVYYCNADAYPHPVVGYDYWGQGTQVTVSS low polyreactivity
QVQLVESGGGLVQAGGSLRLSCAASGRTFHNYAMGRYRQAPGKERELVAAISRGGNTYYADSVKGRFTISRDNSKNTVYLQMNSLKPEDTAVYYCAKDNHFEAYRYDYWGQGTQVTVSS high polyreactivity
QVQLVESGGGLVQAGGSLRLSCAASGLTFVNSTMGWYRQAPGKEWEFVAAITSSGGSSTYYADSVKGRFTISRDNAKNTVYLQMNSLKPEDTAVYDCAAGFSRYVDIVILTVYTGDYWGQGTQVTVSS low polyreactivity
QGKRVESGRGLVQAGGILRLSCAASGRTFYYYAMGWYRQSPGKERELVASITWSGGSTYYADSVKGRFTISRDNAKNTVYLQMNSLKPEDTAVYYCAARFVYYGVDYWGQGTQVTGSS high polyreactivity

What measured polyreactivity (PSR sort gate) goes with QVQLVESGGALVQAGGSLRLSCAASGRTFNYNAMGWYRQAPGKERELVAAITSGASTNYADSVKGRFTISRDNAKNTVYLQMNSLKPEDTAVYYCNAEGYVYYLQEDYWGQGTQVNVSS ?
low polyreactivity
